Recorded hERG current change (%, negative = inhibition) at 10uM by entry
- TARGET: human ether-à-go-go-related gene (hERG) potassium channel (human);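 note: peak tail current of the secondary pulse compared with the same well before compound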
- Sequence (Q12809 whole entry, looked up): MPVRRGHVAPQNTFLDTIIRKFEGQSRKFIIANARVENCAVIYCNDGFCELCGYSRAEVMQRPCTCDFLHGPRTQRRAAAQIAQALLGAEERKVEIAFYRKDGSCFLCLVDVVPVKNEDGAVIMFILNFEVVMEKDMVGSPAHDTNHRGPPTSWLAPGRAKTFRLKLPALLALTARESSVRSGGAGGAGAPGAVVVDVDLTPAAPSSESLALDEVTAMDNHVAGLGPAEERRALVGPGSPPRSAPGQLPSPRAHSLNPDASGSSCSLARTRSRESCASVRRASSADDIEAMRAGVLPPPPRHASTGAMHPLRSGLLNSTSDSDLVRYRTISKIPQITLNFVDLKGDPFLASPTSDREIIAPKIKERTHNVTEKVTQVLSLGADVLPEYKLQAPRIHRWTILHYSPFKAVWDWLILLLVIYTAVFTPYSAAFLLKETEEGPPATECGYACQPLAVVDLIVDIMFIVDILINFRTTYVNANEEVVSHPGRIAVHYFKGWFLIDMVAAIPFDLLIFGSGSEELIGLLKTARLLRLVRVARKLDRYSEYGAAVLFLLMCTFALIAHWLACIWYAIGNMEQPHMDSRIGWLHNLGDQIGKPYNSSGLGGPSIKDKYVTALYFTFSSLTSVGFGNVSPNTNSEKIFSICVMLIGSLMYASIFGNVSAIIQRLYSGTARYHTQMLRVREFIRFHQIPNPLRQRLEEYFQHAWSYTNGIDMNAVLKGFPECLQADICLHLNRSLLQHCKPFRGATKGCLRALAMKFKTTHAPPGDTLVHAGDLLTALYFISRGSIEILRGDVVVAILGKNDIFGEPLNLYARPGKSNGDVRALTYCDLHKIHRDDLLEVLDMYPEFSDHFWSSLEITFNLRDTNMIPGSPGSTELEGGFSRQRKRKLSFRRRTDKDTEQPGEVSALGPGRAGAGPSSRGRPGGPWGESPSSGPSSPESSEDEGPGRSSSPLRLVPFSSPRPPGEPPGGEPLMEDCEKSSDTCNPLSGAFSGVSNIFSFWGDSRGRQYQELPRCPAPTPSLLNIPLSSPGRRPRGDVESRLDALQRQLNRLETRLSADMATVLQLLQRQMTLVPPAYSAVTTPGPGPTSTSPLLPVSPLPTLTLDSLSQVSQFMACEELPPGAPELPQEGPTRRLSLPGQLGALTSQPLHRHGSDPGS
- TEST_METHOD_NOTES: primary screen, population patch clamp on CHO cells stably expressing hERG; higher = less effect of the substance
About 14,000 (4.5%) of roughly 310,000 compounds showed an effect of 50% or more. Effects have a minus sign here. The sample holds strong results, similar compounds and a random draw of the others, so the mix is not that of the screen.
Kindly answer with a numeric value in %, unit omitted.

>>> print(df.to_string())
                                   compound                                    target  result_value
0  O=C(NC1CCCCC1)C(c1ccncc1)N(Cc1ccccc1)C(=O)c1ccc(-c2ccccc2)[nH]1 (centres unmarked)  human ether-à-go-go-related gene (hERG) potassium channel (human)           4.6
1  Cc1cc(NC(=O)CSCC(=O)Nc2ccccc2Oc2ccccc2)no1  human ether-à-go-go-related gene (hERG) potassium channel (human)         -8.79
2  O=C(NC1CCCCC1)C(c1ccc(F)cc1)N(CCN1CCOCC1)C(=O)c1ccc(-c2ccccc2)[nH]1 (centres unmarked)  human ether-à-go-go-related gene (hERG) potassium channel (human)          24.4
3  O=C(NC1CCCC1)C(c1ccncc1)N(Cc1ccco1)C(=O)c1ccc(-c2ccccc2)[nH]1 (centres unmarked)  human ether-à-go-go-related gene (hERG) potassium channel (human)          1.38
4  CCC(C)(C)C1CCC(NC(=O)N2CCN(c3ccccc3O)CC2)CC1 (centres unmarked)  human ether-à-go-go-related gene (hERG) potassium channel (human)         -6.84

Hey, human ether-à-go-go-related gene (hERG) potassium channel (human) data for O=[N+]([O-])c1ccccc1C1Nc2cccc3cccc(c23)N1 : hERG current change (%, negative = inhibition) at 10uM came out at 11.8

O=C(NC1CCCC1)C(c1ccncc1)N(CCCN1CCOCC1)C(=O)c1ccc(-c2ccccc2)[nH]1 (centres unmarked) tested on human ether-à-go-go-related gene (hERG) potassium channel (human) gave hERG current change (%, negative = inhibition) at 10uM: -61.1

Short answer on human ether-à-go-go-related gene (hERG) potassium channel (human) for O=C(NCC1CCCO1)C(c1ccc(F)cc1)N(CCCN1CCOCC1)C(=O)c1ccc(-c2ccccc2)[nH]1 (centres unmarked) , hERG current change (%, negative = inhibition) at 10uM: -26.2

====

The entries below come with measured hERG current change (%, negative = inhibition) at 10uM values attached.
- TARGET: human ether-à-go-go-related gene (hERG) potassium channel (human);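 note: peak tail current of the secondary pulse compared with the same well before compound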
- TEST_METHOD_NOTES: primary screen, population patch clamp on CHO cells stably expressing hERG; higher = less effect of the substance
Hit rate of the full screen: of about 310,000 compounds, about 14,000 (4.5%) showed an effect of 50% or more. Effects have a minus sign here. What follows is part of a selection rich in strong results, with near analogues and random picks from the rest.
// units = %; emit number, no label

In [3]: df
Out[3]:
                                   molecule                                    target  unit  result_value
0  Cc1cc2nc(-c3ccc(SCC(=O)N4CCN(C(=O)c5ccco5)CC4)nc3)[nH]c2cc1C  human ether-à-go-go-related gene (hERG) potassium channel (human)     %          2.64
1  CC(=O)c1cc(F)c(N2CCN(c3ccc([N+](=O)[O-])cc3F)CC2)cc1C  human ether-à-go-go-related gene (hERG) potassium channel (human)     %         -12.3
2  CCCCn1c(N)c(N(CC(C)C)C(=O)c2ccc(S(=O)(=O)N3CCCCCC3)cc2)c(=O)[nH]c1=O  human ether-à-go-go-related gene (hERG) potassium channel (human)     %          9.58
3  O=C(Nc1ccc(F)cc1F)N1CCCN(c2ccc([N+](=O)[O-])cn2)CC1  human ether-à-go-go-related gene (hERG) potassium channel (human)     %         -50.2
4  O=C(O)C(=O)O.O=C(c1ccco1)N1CCN(S(=O)(=O)c2ccc([N+](=O)[O-])cc2)CC1  human ether-à-go-go-related gene (hERG) potassium channel (human)     %         -39.8

The measured hERG current change (%, negative = inhibition) at 10uM associated with CCc1c(C)nc(N)nc1N1N=C1SC(C(C)=O)C(C)=O reads 27.8

So for CC(C)(C)c1ccc(NC(=O)N2CCN(c3ccc([N+](=O)[O-])cn3)CC2)cc1 , the logged hERG current change (%, negative = inhibition) at 10uM turned out to be -9.81

Sample CCOc1ccc2nc(SCC(=O)NCc3ccco3)sc2c1 ; hERG current change (%, negative = inhibition) at 10uM observed: -29.8

Form field hERG current change (%, negative = inhibition) at 10uM, entry O=C(CSc1ccc(-c2nc3ccccc3[nH]2)cn1)N1CCN(C(=O)c2ccco2)CC1 : -68.4
